Reference source for all entries: paper PMC4638191

Tested on: bloodstream form T. brucei (strain 221)
protocol: Trypanocidal activity against cultured bloodstream form T. brucei (resazurin)
recorded-conditions: Trypanosoma brucei, pH 7.4, read-out: T. brucei IC50, bloodstream form, pH 7.4; mean of triplicate ± SEM
# IC50 per entry
Give the value in µM but do not write µM after it.

>>> value_reported("NCc1ccc(-c2nc3cc(Cl)ccc3c3c2CCCN3)cc1")
1.25
>>> value_reported("NCc1ccc(-c2nc3ccc(Cl)cc3c3c2CCCO3)cc1")
1.5

Item: `NCc1ccc(-c2nc3ccc(Cl)cc3c3c2CCCN3Cc2ccccc2)cc1` | IC50: 1

Item: `NCc1ccc(-c2nc3ccc(Cl)cc3c3c2CCCN3)cc1` | IC50: 2.44

Item: `CCNCc1ccc2nc(-c3ccc(Cl)cc3)c3c(c2c1)N(Cc1ccccc1)CCC3` | IC50: 3.33

Item: `N#Cc1ccc(-c2nc3ccc(Cl)cc3c3c2CCCCN3)cc1` | IC50: 17.3

Item: `NCc1ccc(-c2nc3ccc(Cl)cc3c3c2CCCCN3)cc1` | IC50: 2.33

Item: `N#Cc1ccc(-c2nc3ccc(Cl)cc3c3c2CCCO3)cc1` | IC50: 9.61

Item: `Clc1ccc2nc(-c3cccs3)c3c(c2c1)OCCC3` | IC50: 18

---

Tested on: L. infantum strain MCAN/ES/92/BCN722 promastigote forms
protocol: Activity against promastigotes of L. infantum (acid phosphatase)
Type: cell-based, Leishmania infantum
recorded-conditions: Leishmania infantum, promastigote form; mean ± SD of duplicate experiments performed at least twice
# pIC50 per entry
pIC50 here is simply -log10 of the concentration when that concentration is written in mol/L.

Answered cases to consult:
>>> value_reported("N#Cc1ccc(-c2nc3ccc(Cl)cc3c3c2CCCN3)cc1")
4.82
>>> value_reported("N#Cc1ccc(-c2nc3ccc(Cl)cc3c3c2CCCO3)cc1")
4.63
>>> value_reported("NCc1ccc(-c2nc3ccc(Cl)cc3c3c2CCN3)cc1")
5.19
>>> value_reported("Clc1ccc2nc(-c3cccs3)c3c(c2c1)OCCC3")
4.29

Now let's try a different one.
Entry `NCc1ccc(-c2nc3ccc(Cl)cc3c3c2CCCN3)cc1` , tested on L. infantum strain MCAN/ES/92/BCN722 promastigote forms, has a reported pIC50 of 4.94

---

# selectivity ratio at 6 days per entry
protocol: in vitro
recorded-conditions: rat, rat skeletal muscle L6 cells, SITb: selectivity index as the ratio of cytotoxic to anti-T. brucei IC50 values, L6 IC50 / T. brucei IC50
API note: the answer field is a bare number with no unit suffix.

Answered cases to consult:
>>> value_reported("N#Cc1ccc(-c2nc3ccc(Cl)cc3c3c2CCCN3)cc1")
6.4
>>> value_reported("N#Cc1ccc(-c2nc3ccc(Cl)cc3c3c2CCCO3)cc1")
3.8
>>> value_reported("NCc1ccc(-c2nc3cc(Cl)ccc3c3c2CCCN3)cc1")
2.5

Item: `NCc1ccc(-c2nc3ccc(Cl)cc3c3c2CCCN3)cc1` | selectivity ratio at 6 days: 3.7

Item: `NCc1ccc(-c2nc3ccc(Cl)cc3c3c2CCN3)cc1` | selectivity ratio at 6 days: 2.8

Item: `CCN(CC)CCCc1cc2cc(Cl)ccc2nc1-c1cccs1` | selectivity ratio at 6 days: 2.3

Item: `CCNCc1ccc2nc(-c3ccc(Cl)cc3)c3c(c2c1)N(Cc1ccccc1)CCC3` | selectivity ratio at 6 days: 2.1

Item: `NCc1ccc(-c2nc3ccc(Cl)cc3c3c2CCCN3Cc2ccccc2)cc1` | selectivity ratio at 6 days: 6.8

Item: `NCc1ccc(-c2nc3ccc(Cl)cc3c3c2CCCO3)cc1` | selectivity ratio at 6 days: 4.8

Item: `Clc1ccc2nc(-c3cccs3)c(CCCN3CCCC3)cc2c1` | selectivity ratio at 6 days: 2.7

Item: `NCc1ccc(-c2nc3ccc(Cl)cc3c3c2CCCCN3)cc1` | selectivity ratio at 6 days: 3

Item: `N#Cc1ccc(-c2nc3cc(Cl)ccc3cc2CCCN)cc1` | selectivity ratio at 6 days: 4.9
